Items are presented alongside their recorded ELISA (Avgerage signal-noise).
Experimental System: T1, Recombinant Human DLL4 (delta-like protein 4) (human, UniProt Q9NR61 27-529)
T1 construct: Bought recombinant human DLL4 (R&D Systems Cat#1506-D4/CF); also called rHuman DLL4; Delta-like 4
Assay Comment: ELISA, DLL4 coated on plate, Fab in solution, absorbance at 450 nm
Number only, please.

These solved cases illustrate the format of a correct answer.
Fab VH1-46_IGHD6-6*01_IGHJ1*01 S102A/S103P/S104F/H111F & L6_IGKJ1*01 S28N/S30D/S31H N53G (Fab, V domains shown, Fab with CH1 (plasmid A, His6 and Flag tags) and kappa CL (plasmid C); also called H:APFF & L:NDH N53G) VH: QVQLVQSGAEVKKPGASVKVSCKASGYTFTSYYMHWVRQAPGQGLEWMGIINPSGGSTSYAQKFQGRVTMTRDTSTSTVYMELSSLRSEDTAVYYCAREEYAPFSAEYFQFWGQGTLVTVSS VL: EIVLTQSPATLSLSPGERATLSCRASQNVDHYLAWYQQKPGQAPRLLIYDASGRATGIPARFSGSGSGTDFTLTISSLEPEDFAVYYCQQRSNWPPWTFGQGTKVEIKR = 0.163
Fab VH1-46_IGHD6-6*01_IGHJ1*01 S102A/S103P/S104F/H111F & L6_IGKJ1*01 S28N/S30D/S31H S52M (Fab, V domains shown, Fab with CH1 (plasmid A, His6 and Flag tags) and kappa CL (plasmid C); also called H:APFF & L:NDH S52M) VH: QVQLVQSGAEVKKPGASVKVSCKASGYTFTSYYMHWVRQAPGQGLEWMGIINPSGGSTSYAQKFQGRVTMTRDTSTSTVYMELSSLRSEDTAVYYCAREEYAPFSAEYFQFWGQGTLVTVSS VL: EIVLTQSPATLSLSPGERATLSCRASQNVDHYLAWYQQKPGQAPRLLIYDAMNRATGIPARFSGSGSGTDFTLTISSLEPEDFAVYYCQQRSNWPPWTFGQGTKVEIKR = 0.185
Fab VH1-46_IGHD6-6*01_IGHJ1*01 S102A/S103P/S104F/H111F & L6_IGKJ1*01 S28N/S30D/S31H S52L (Fab, V domains shown, Fab made in E. coli; The rest is CH1 from plasmid A (His6 and Flag tags) and kappa CL from plasmid C; also called H:APFF & L:NDH S52L) VH: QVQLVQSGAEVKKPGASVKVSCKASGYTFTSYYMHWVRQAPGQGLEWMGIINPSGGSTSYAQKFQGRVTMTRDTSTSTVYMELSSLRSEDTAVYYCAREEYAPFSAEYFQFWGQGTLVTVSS VL: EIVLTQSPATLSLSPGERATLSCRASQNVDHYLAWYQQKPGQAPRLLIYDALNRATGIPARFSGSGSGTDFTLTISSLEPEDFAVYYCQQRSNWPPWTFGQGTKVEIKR = 0.285

Ask: So what does the record say about ELISA (Avgerage signal-noise) for Fab VH1-46_IGHD6-6*01_IGHJ1*01 S102A/S103P/S104F/H111F & L6_IGKJ1*01 S28N/S30D/S31H S52W (Fab, V domains shown, Fab with CH1 (plasmid A, His6 and Flag tags) and kappa CL (plasmid C); also called H:APFF & L:NDH S52W) VH: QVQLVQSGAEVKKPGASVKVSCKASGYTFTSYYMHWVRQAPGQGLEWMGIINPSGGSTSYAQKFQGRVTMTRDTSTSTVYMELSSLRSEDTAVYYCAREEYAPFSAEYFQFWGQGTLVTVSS VL: EIVLTQSPATLSLSPGERATLSCRASQNVDHYLAWYQQKPGQAPRLLIYDAWNRATGIPARFSGSGSGTDFTLTISSLEPEDFAVYYCQQRSNWPPWTFGQGTKVEIKR ?
Reply: 0.177

Ask: So what does the record say about ELISA (Avgerage signal-noise) for Fab VH1-46_IGHD6-6*01_IGHJ1*01 S102A/S103P/S104F/H111F & L6_IGKJ1*01 S28N/S30D/S31H S52T (Fab, V domains shown, Fab with CH1 (plasmid A, His6 and Flag tags) and kappa CL (plasmid C); also called H:APFF & L:NDH S52T) VH: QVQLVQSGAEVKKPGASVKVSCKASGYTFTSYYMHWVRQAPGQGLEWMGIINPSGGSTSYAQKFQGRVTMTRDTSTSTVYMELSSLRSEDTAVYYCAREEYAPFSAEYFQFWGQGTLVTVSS VL: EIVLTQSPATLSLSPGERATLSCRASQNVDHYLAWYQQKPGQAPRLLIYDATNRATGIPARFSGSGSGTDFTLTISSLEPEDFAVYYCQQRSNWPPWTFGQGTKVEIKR ?
Reply: 0.263

Ask: So what does the record say about ELISA (Avgerage signal-noise) for Fab VH1-46_IGHD6-6*01_IGHJ1*01 S102A/S103P/S104F/H111F & L6_IGKJ1*01 S28N/S30D/S31H (Fab, V domains shown, Parental template of this NNK series; Fab with CH1 (plasmid A, His6 and Flag tags) and kappa CL (plasmid C); also called H:APFF & L:NDH; NDH) VH: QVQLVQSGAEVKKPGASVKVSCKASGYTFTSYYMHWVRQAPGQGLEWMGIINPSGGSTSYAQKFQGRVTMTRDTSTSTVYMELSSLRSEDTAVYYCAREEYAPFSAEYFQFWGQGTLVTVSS VL: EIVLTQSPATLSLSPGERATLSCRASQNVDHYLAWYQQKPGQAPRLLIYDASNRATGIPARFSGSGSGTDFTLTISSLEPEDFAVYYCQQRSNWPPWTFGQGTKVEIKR ?
Reply: 0.165

Ask: So what does the record say about ELISA (Avgerage signal-noise) for Fab VH1-46_IGHD6-6*01_IGHJ1*01 S102A/S103P/S104F/H111F & L6_IGKJ1*01 S28N/S30D/S31H N53M (Fab, V domains shown, Fab with CH1 (plasmid A, His6 and Flag tags) and kappa CL (plasmid C); also called H:APFF & L:NDH N53M) VH: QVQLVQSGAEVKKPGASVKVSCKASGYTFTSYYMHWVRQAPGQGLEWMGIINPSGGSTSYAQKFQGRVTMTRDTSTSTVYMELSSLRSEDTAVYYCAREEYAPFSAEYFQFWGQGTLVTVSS VL: EIVLTQSPATLSLSPGERATLSCRASQNVDHYLAWYQQKPGQAPRLLIYDASMRATGIPARFSGSGSGTDFTLTISSLEPEDFAVYYCQQRSNWPPWTFGQGTKVEIKR ?
Reply: 0.162

Ask: So what does the record say about ELISA (Avgerage signal-noise) for Fab VH1-46_IGHD6-6*01_IGHJ1*01 S102A/S103P/S104F/H111F & L6_IGKJ1*01 S28N/S30D/S31H N53E (Fab, V domains shown, Fab with CH1 (plasmid A, His6 and Flag tags) and kappa CL (plasmid C); also called H:APFF & L:NDH N53E) VH: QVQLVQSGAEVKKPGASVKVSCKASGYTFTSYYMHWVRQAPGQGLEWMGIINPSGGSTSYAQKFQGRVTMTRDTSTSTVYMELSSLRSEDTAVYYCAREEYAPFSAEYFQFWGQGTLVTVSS VL: EIVLTQSPATLSLSPGERATLSCRASQNVDHYLAWYQQKPGQAPRLLIYDASERATGIPARFSGSGSGTDFTLTISSLEPEDFAVYYCQQRSNWPPWTFGQGTKVEIKR ?
Reply: 0.204

Ask: So what does the record say about ELISA (Avgerage signal-noise) for Fab VH1-46_IGHD6-6*01_IGHJ1*01 S102A/S103P/S104F/H111F & L6_IGKJ1*01 S28N/S30D/S31H N53H (Fab, V domains shown, Fab with CH1 (plasmid A, His6 and Flag tags) and kappa CL (plasmid C); also called H:APFF & L:NDH N53H) VH: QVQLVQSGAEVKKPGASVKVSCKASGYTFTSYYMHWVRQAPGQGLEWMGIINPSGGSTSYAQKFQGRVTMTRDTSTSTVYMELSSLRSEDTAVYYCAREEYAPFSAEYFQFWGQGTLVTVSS VL: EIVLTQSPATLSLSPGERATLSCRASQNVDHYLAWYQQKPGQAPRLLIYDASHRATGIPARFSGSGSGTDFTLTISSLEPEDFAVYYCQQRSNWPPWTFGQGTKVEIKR ?
Reply: 0.23
